Target: T1, recombinant C-terminal ApoE fragment G200-HIS (ApoE-G200-H299-10xHIS) (human, UniProt P02649 218-317)
T1 construct: also called G200-HIS fragment
T1 sequence (P02649 other isoform, or with tags, fused parts or gaps limits assumed): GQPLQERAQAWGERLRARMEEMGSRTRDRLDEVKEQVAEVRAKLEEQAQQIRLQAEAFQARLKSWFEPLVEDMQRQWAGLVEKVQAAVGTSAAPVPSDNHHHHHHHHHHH
Experiment: BLI (Octet RED384), G200-HIS captured on anti-HIS biosensor, antibody as analyte, 1:2 bivalent analyte fit
pKd: −log10 of the molar value.
Here the recorded pKd is given for each entry.

binder | pKd
28F2, recombinant IgG2c antibody (antibody, V domains shown) VH: QIQLVQSGPDLKKPGETVKISCKASGYTFTNYAMHWMKQAPGKALKWMGWINTYTGEPTFADDFKGRFAFSLETSASTAYLQINSLKNEDMATYFCAREGYYDRSHYFDYWGQGTTLTVSS VL: DVLMTQTPLSLPVSLGDQASISCRSSLSLVHGDGNTYLEWYLQKPGQSPKLLIYKVSNRFSGVPDRFSGSGSGTDFTLKISRVEAEDLGVYYCLQGSHIPFTFGSGTKLEIK | 8.01
7B10, recombinant IgG2c antibody (antibody, V domains shown, also called 7610) VH: AVQLVESGGGLVKPGRSLKLSCAASGFTFSSYAMSWVRQFPDKRLDWVAEISSGGGSTNYLDTVTGRFTISRDNAKNTLYLEMNSLRSEDTAMYYCARQLVGTDYYGTDYWGQGTSVTVSS VL: DVLMTQTPLSLPVSLGDQASISCRSSQNIVYSNGNTYLEWYLQKPGQSPKLLIYKVSNRFSGVPDRFSGSGSGTDFTLKISRVEAEDLGVYYCFQGSHVPYTFGGGTKLEIK | 9.10
23D5, recombinant IgG2c antibody (antibody, V domains shown) VH: EVQLVESGGGLVKPGGSLKLSCSASGFTFSRYAMSWVRQSPEKRLEWVAEINSGGSYSFYSDTVTGRFTISRDNAKNTLFLEMSSLRSEDTAIYYCARQLSGTDYYGTDYWGQGTSVTVSS VL: DVLMTQTPLSLPVSHGDQASISCRSSQSLLYSNGNTYLEWYLQKPGQSPKLLIYKVSNRFSGVPDRFSGSGSGTDFTLKISRVEAEDLGVYYCFQGSHVPYTFGGGTKLEIK | 8.28
